experimentSummary: Pharmacokinetic studies in mice (plasma PK, IV and PO)
Format: in vivo
conditionContext: mouse, 0.5 mg/kg; female C57B16 mice, IV 0.50 mg/kg, plasma; read-out: Clp
Where a name gives a salt, the structure may show the parent alone.
valueType: clearance (mL/min/kg)

- C[C@H](C#N)Nc1cc(-n2ncc3cc(C#N)c(N)nc32)ncc1-n1cc([C@H]2CC[C@H](CCN3CCN(c4ccc(C5CCC(=O)NC5=O)cc4)CC3)CC2)nn1 (stereo partly drawn) [P-160, TFA]: 14.9
- C[C@H](C#N)Nc1cc(-n2ncc3cc(C#N)cnc32)ncc1-n1cc(C2CCC(CCN3CCN(c4ccc(C5CCC(=O)NC5=O)cc4)[C@H](C)C3)CC2)nn1 (stereo partly drawn) [P-155]: 5.45
- C[C@H](C#N)Nc1cc(-n2ncc3cc(C#N)cnc32)ncc1-n1cc([C@H]2CC[C@H](CCN3CCN(c4ccc(C5CCC(=O)NC5=O)cc4)CC3)CC2)nn1 (stereo partly drawn) [P-139, formic acid salt]: 10.6
